pIC50 listing for selected compounds.
biological target: Human recombinant MetAP2 (Homo sapiens); construct: made in house; host or cells: Sf9 insect cells; experiment: inhibition of recombinant human MetAP2 activity (MAS substrate, amino acid oxidase/Amplex red fluorescence); type: biochemical; details: manganese enzyme, 30 minutes at 25° C., pH 7.5, 0.75 mM MAS substrate, 1% DMSO
Sequence (P50579 whole entry): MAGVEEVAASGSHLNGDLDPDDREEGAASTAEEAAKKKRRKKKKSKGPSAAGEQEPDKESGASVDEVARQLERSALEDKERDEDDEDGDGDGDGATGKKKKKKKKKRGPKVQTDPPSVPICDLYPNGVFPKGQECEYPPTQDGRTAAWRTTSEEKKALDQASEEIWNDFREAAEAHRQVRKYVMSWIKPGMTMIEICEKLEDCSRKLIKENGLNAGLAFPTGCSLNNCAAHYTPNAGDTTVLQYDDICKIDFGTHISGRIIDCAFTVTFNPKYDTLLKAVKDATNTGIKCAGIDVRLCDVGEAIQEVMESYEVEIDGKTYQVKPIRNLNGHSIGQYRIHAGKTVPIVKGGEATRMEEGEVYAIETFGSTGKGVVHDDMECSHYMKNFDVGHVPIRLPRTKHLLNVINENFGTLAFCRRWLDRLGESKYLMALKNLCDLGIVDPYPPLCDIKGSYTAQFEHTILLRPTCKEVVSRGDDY
pIC50: −log10 of the molar value.

Look over these answered cases.
>  <Compound>
O=C(O)c1c(NS(=O)(=O)c2ccc(F)cc2/C=C2\CN3CCC2CC3)ccc2c1OC[C@@H]1C[C@H]21 (single isomer, unassigned) [Example 10]

>  <pIC50>
> 7.30

$$$$
>  <Compound>
CCN1CC2C(C1)C2c1cc(F)ccc1S(=O)(=O)Nc1ccc2c(c1C(=O)O)OC[C@@H]1C[C@H]21 (stereo partly drawn) [Example 23]

>  <pIC50>
6.30 to 7.30

$$$$
>  <Compound>
CCN(CC)CC(C)(C)Cc1cc(F)ccc1S(=O)(=O)Nc1ccc2c(c1C(=O)O)OC[C@@H]1C[C@H]21 [Example 5]

>  <pIC50>
> 7.30

$$$$

Just so you know, measured pIC50 for O=C(O)c1c(NS(=O)(=O)c2ccc(F)cc2C2CC2CN2CCCC2)ccc2c1OC[C@@H]1C[C@H]21 (stereo partly drawn) [Example 4] came out at 6.30 to 7.30

Just so you know, measured pIC50 for CCN1CCCC(Cc2cc(F)ccc2S(=O)(=O)Nc2ccc3c(c2C(=O)O)OCC2CC32)C1 (single isomer, unassigned) [Example 15] came out at > 7.30

Just so you know, measured pIC50 for CC1(O)CCN(C/C=C\c2cc(F)ccc2S(=O)(=O)Nc2ccc3c(c2C(=O)O)OC[C@@H]2C[C@H]32)C1 (stereo partly drawn) [Example 20] came out at > 7.30

Just so you know, measured pIC50 for CCN(CC)CC1CC1c1cc(F)ccc1S(=O)(=O)Nc1ccc2c(c1C(=O)O)OC[C@@H]1C[C@H]21 (stereo partly drawn) [Example 1] came out at 6.30 to 7.30

---

target: Human recombinant MetAP2 (Homo sapiens); construct: made in house; host or cells: Sf9 insect cells; assay: inhibition of recombinant human MetAP2 activity (MAS substrate, amino acid oxidase/Amplex red fluorescence); type: biochemical; details: manganese enzyme, 30 minutes at 25° C., pH 7.5, 0.75 mM MAS substrate, 1% DMSO; listed as First eluting enantiomer of (1aR,7bS)-5-[2-(2-diethylamino-methylcyclopropyl)-4-
Assay endpoint: IC50

Observed IC50, Human recombinant MetAP2 (Homo sapiens), CCN(CC)CC1CC1c1cc(F)ccc1S(=O)(=O)Nc1ccc2c(c1C(=O)O)OC[C@@H]1C[C@H]21 (stereo partly shown) : < 50 nM

---

target: Human recombinant MetAP2 (Homo sapiens); construct: made in house; host or cells: Sf9 insect cells; experiment: inhibition of recombinant human MetAP2 activity (MAS substrate, amino acid oxidase/Amplex red fluorescence); assay type: biochemical; details: manganese enzyme, 30 minutes at 25° C., pH 7.5, 0.75 mM MAS substrate, 1% DMSO
IC50 listing for selected molecules.

Look over these answered cases.
>  <Molecule>
O=C(O)c1c(NS(=O)(=O)c2ccc(F)cc2CC2CC3CCCN3C2)ccc2c1OC[C@@H]1C[C@H]21 (some centres unmarked) [Example 29]

>  <IC50>
< 50 nM

$$$$
>  <Molecule>
O=C(O)c1c(NS(=O)(=O)c2ccc(F)cc2/C=C2/CN3CCC2CC3)ccc2c1OC[C@@H]1C[C@H]21 (single isomer, unassigned) [Example 11]

>  <IC50>
< 50 nM

$$$$
>  <Molecule>
CCN1CCC/C(=C/c2cc(F)ccc2S(=O)(=O)Nc2ccc3c(c2C(=O)O)OC[C@@H]2C[C@H]32)C1 (single isomer, unassigned) [Example 13]

>  <IC50>
50 to 500 nM

$$$$
>  <Molecule>
O=C(O)c1c(NS(=O)(=O)c2ccc(F)cc2/C=C\CN2CCC(O)CC2)ccc2c1OC[C@@H]1C[C@H]21 [Example 21]

>  <IC50>
50 to 500 nM

$$$$
>  <Molecule>
CCN1CCC[C@@H]1CCc1cc(F)ccc1S(=O)(=O)Nc1ccc2c(c1C(=O)O)OC[C@@H]1C[C@H]21 [Example 16]

>  <IC50>
< 50 nM

$$$$

Please examine the following record next.
Just so you know, measured IC50 for O=C(O)c1c(NS(=O)(=O)c2ccc(F)cc2/C=C\CN2CC[C@@H](CO)C2)ccc2c1OC[C@@H]1C[C@H]21 [Example 26] came out at < 50 nM
